biological target: TEAD1 protein (YAP Binding Domain) (Homo sapiens)
Sequence (P28347 209-426 limits assumed): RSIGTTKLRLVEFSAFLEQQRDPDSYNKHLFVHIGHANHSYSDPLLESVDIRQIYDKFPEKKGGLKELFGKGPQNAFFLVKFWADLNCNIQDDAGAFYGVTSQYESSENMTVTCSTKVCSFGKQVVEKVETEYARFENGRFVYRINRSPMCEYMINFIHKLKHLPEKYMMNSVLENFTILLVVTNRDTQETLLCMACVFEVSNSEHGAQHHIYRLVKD
pIC50: −log10 of the molar value.
Reported pIC50 values follow for various compounds
measured-property: pIC50

compound="C=CC(=O)Nc1ccc(OCc2ccc(C(F)(F)F)nc2)c(F)c1 [Compound 73]" measured_property=pIC50 obs_value="5.70 to 6.30"
compound="C=CC(=O)Nc1cc2nc(CC(C)(C)C)oc2cc1F [Compound 143]" measured_property=pIC50 obs_value="5.70 to 6.30"
compound="C=CC(=O)Nc1ccc(OCc2cccc(F)c2)c2c1CCCC2 [Compound 15]" measured_property=pIC50 obs_value="6.30 to 6.60"
compound="C=CC(=O)Nc1ccc(OCc2cncc(C(F)(F)F)c2)c(C#N)c1 [Compound 41]" measured_property=pIC50 obs_value="< 5.70"
compound="C=CC(=O)Nc1ccc2c(c1)N(C)CC(c1cccc(F)c1)O2 (centres unmarked) [Compound 12]" measured_property=pIC50 obs_value="< 5.70"

Data provenance: patent US20230115350A1
